Target: T1, human thrombin receptor (human, UniProt P25116 42-425)
T1 chain: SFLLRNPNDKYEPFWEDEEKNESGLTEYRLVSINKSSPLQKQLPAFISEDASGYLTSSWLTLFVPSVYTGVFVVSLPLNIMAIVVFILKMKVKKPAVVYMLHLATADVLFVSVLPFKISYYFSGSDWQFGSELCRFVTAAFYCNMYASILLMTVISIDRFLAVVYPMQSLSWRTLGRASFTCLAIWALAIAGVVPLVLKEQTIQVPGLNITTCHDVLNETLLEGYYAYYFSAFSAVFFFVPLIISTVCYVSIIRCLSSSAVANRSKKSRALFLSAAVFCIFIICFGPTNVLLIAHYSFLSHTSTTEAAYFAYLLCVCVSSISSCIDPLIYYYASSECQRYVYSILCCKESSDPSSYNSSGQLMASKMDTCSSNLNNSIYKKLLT
Assay: cell-based or functional assay
Square brackets hold non-standard residues; d marks the D form. Ends that are not written are not given here. * marks the point of attachment. SMeMpr = S-methyl-3-mercaptopropionic acid, CSCCC(=O)*; 2‑Mba = 2-mercaptobenzoic acid, O=C(c1ccccc1S)*; Cha = N[C@@H](CC1CCCCC1)C(=O)O; Mpa = O=C(O)CCS
Readout label: IC50 (50% inhibition of thrombin-induced platelet activation or aggregation)

binder="[Mpa]F[Cha][Cha]RNPNDKY [Mpr-F(Cha) (Cha)RNPNDKY]" result="40 µM"
binder="[Mpa]F[Cha][Cha]RNANDK-NH2 (SMILES C[C@H](NC(=O)[C@H](CC(N)=O)NC(=O)[C@H](CCCNC(=N)N)NC(=O)[C@H](CC1CCCCC1)NC(=O)[C@H](CC1CCCCC1)NC(=O)[C@H](Cc1ccccc1)NC(=O)CCS)C(=O)N[C@@H](CC(N)=O)C(=O)N[C@@H](CC(=O)O)C(=O)N[C@@H](CCCCN)C(N)=O) [Mpr-F(Cha) (Cha)RNANDK-NH2]" result="75 µM"
binder="SMeMpr-F[Cha][Cha]RKPNDK-NH2 (SMILES CSCCC(=O)N[C@@H](Cc1ccccc1)C(=O)N[C@@H](CC1CCCCC1)C(=O)N[C@@H](CC1CCCCC1)C(=O)N[C@@H](CCCNC(=N)N)C(=O)N[C@@H](CCCCN)C(=O)N1CCC[C@H]1C(=O)N[C@@H](CC(N)=O)C(=O)N[C@@H](CC(=O)O)C(=O)N[C@@H](CCCCN)C(N)=O) [(SMeMpr)-F(Cha)(Cha)RKPNDK-NH2]" result="10 µM"
binder="[Mpa]F[Cha][Cha]RN-NH2 (SMILES N=C(N)NCCC[C@H](NC(=O)[C@H](CC1CCCCC1)NC(=O)[C@H](CC1CCCCC1)NC(=O)[C@H](Cc1ccccc1)NC(=O)CCS)C(=O)N[C@@H](CC(N)=O)C(N)=O) [Mpr-F(Cha) (Cha)RN-NH2]" result="100 µM"
binder="[Mpa]F[Cha][Cha]RKPNDK-NH2 [Mpr-F(Cha) (Cha)RKPNDK-NH2]" result="5 µM"
binder="{Cam‑Mpr}-FLLR-NH2 [[Cam-Mpr]-FLLR-NH2]" result="1000 µM"
binder="[Mpa]F[Cha][Cha]RNPNDA-NH2 (SMILES C[C@H](NC(=O)[C@H](CC(=O)O)NC(=O)[C@H](CC(N)=O)NC(=O)[C@@H]1CCCN1C(=O)[C@H](CC(N)=O)NC(=O)[C@H](CCCNC(=N)N)NC(=O)[C@H](CC1CCCCC1)NC(=O)[C@H](CC1CCCCC1)NC(=O)[C@H](Cc1ccccc1)NC(=O)CCS)C(N)=O) [Mpr-F(Cha) (Cha)RNPNDA-NH2]" result="50 µM"
binder="[Mpa]F[Cha][Cha]RKPNEK-NH2 [Mpr-P(Cha) (Cha)RKPNEK-NH2]" result="10 µM"
binder="[Mpa]F[Cha][Cha]RKPNDA-NH2 (SMILES C[C@H](NC(=O)[C@H](CC(=O)O)NC(=O)[C@H](CC(N)=O)NC(=O)[C@@H]1CCCN1C(=O)[C@H](CCCCN)NC(=O)[C@H](CCCNC(=N)N)NC(=O)[C@H](CC1CCCCC1)NC(=O)[C@H](CC1CCCCC1)NC(=O)[C@H](Cc1ccccc1)NC(=O)CCS)C(N)=O) [Mpr-F(Cha) (Cha)RKPNDA-NH2]" result="50 µM"
binder="[Mpa]F[Cha][Cha]RGPNDK-NH2 (SMILES N=C(N)NCCC[C@H](NC(=O)[C@H](CC1CCCCC1)NC(=O)[C@H](CC1CCCCC1)NC(=O)[C@H](Cc1ccccc1)NC(=O)CCS)C(=O)NCC(=O)N1CCC[C@H]1C(=O)N[C@@H](CC(N)=O)C(=O)N[C@@H](CC(=O)O)C(=O)N[C@@H](CCCCN)C(N)=O) [Mpr-F(Cha) (Cha)RGPNDK-NH2]" result="20 µM"
binder="{2‑Mba}-F[Cha][Cha]RKPNDK-NH2 (SMILES N=C(N)NCCC[C@H](NC(=O)[C@H](CC1CCCCC1)NC(=O)[C@H](CC1CCCCC1)NC(=O)[C@H](Cc1ccccc1)NC(=O)c1ccccc1S)C(=O)N[C@@H](CCCCN)C(=O)N1CCC[C@H]1C(=O)N[C@@H](CC(N)=O)C(=O)N[C@@H](CC(=O)O)C(=O)N[C@@H](CCCCN)C(N)=O) [(2-Mba)-F(Cha)(Cha)RKPNDK-NH2]" result="50 µM"
binder="[Mpa]F[Cha][Cha]RNPNDK-NH2 (SMILES N=C(N)NCCC[C@H](NC(=O)[C@H](CC1CCCCC1)NC(=O)[C@H](CC1CCCCC1)NC(=O)[C@H](Cc1ccccc1)NC(=O)CCS)C(=O)N[C@@H](CC(N)=O)C(=O)N1CCC[C@H]1C(=O)N[C@@H](CC(N)=O)C(=O)N[C@@H](CC(=O)O)C(=O)N[C@@H](CCCCN)C(N)=O) [Mpr-F(Cha) (Cha)RNPNDK-NH2]" result="25 µM"
binder="[Mpa]F[Cha][Cha]RNPNAK-NH2 (SMILES C[C@H](NC(=O)[C@H](CC(N)=O)NC(=O)[C@@H]1CCCN1C(=O)[C@H](CC(N)=O)NC(=O)[C@H](CCCNC(=N)N)NC(=O)[C@H](CC1CCCCC1)NC(=O)[C@H](CC1CCCCC1)NC(=O)[C@H](Cc1ccccc1)NC(=O)CCS)C(=O)N[C@@H](CCCCN)C(N)=O) [Mpr-F(Cha) (Cha)RNPNAK-NH2]" result="> 100 µM"
